All values here come from patent US10730913B1.

Test system: Human red blood cells (hRBCs)
Experiment: Hemolysis assay using whole human blood
Type: cell-based
Conditions: 25 μM; hRBCs, 15 min at 37° C.; relative to 1.0% triton X-100
Numbered stars: 1 amine (or outer) side, 2 acyl side, 3 side chain; on linkers, the order of the positions; unused ones are H or OH. Square brackets hold non-standard residues; d marks the D form. Peptide text beside a SMILES is read from it. X1 = NN([C@H](Cc1ccccc1)C(=O)[*:2])[*:1]; Orn(Nα-NH2) = NCCC[C@H](NN)C(=O)O; Orn = NCCC[C@H](N)C(=O)O
Under this convention, y denotes Hemolytic Activity (% Hemolysis) strictly below 3% and n denotes Hemolytic Activity (% Hemolysis) at or above 3%.

molecule: CC(C)C[C@@H]1NC(=O)[C@H](CCCN)NC(=O)[C@H](C(C)C)NC(=O)[C@@H]2CCCN2C(=O)[C@@H](Cc2ccccc2)N(N)C(=O)[C@H](CC(C)C)NC(=O)[C@H](CCCN)N(N)C(=O)[C@H](C(C)C)NC(=O)[C@@H]2CCCN2C(=O)[C@@H](Cc2ccccc2)N(N)C1=O [Compound 5] (cyclo(L[X1]PV[Orn]L[X1]PV[Orn(Nα-NH2)]))
classLabel: y

molecule: CC(C)C[C@@H]1NC(=O)[C@H](CCCN)NC(=O)[C@H](C(C)C)NC(=O)[C@@H]2CCCN2C(=O)[C@@H](Cc2ccccc2)N(N)C(=O)[C@H](CC(C)C)NC(=O)[C@H](CCCN)N(N)C(=O)[C@H](C(C)C)NC(=O)[C@@H]2CCCN2C(=O)[C@@H](Cc2ccccc2)NC1=O [Compound 6] (HELM PEPTIDE1{L.[dF].P.V.[NCCC[C@@H](C(=O)[*:2])N(N)[*:1]].L.[NN([C@H](Cc1ccccc1)C(=O)[*:2])[*:1]].P.V.[Orn]}$PEPTIDE1,PEPTIDE1,1:R1-10:R2$$$V2.0)
classLabel: n

molecule: CC(C)C[C@@H]1NC(=O)[C@H](CCCN)N(N)C(=O)[C@H](C(C)C)NC(=O)[C@@H]2CCCN2C(=O)[C@@H](Cc2ccccc2)NC(=O)[C@H](CC(C)C)NC(=O)[C@H](CCCN)N(N)C(=O)[C@H](C(C)C)NC(=O)[C@@H]2CCCN2C(=O)[C@@H](Cc2ccccc2)NC1=O [Compound 7] (HELM PEPTIDE1{L.[dF].P.V.[NCCC[C@@H](C(=O)[*:2])N(N)[*:1]].L.[dF].P.V.[NCCC[C@@H](C(=O)[*:2])N(N)[*:1]]}$PEPTIDE1,PEPTIDE1,1:R1-10:R2$$$V2.0)
classLabel: n

Hello, is Hemolytic Activity (% Hemolysis) of the following molecule strictly smaller than 3%? CC(C)C[C@@H]1NC(=O)[C@H](CCCN)N(N)C(=O)[C@H](C(C)C)NC(=O)[C@@H]2CCCN2C(=O)[C@@H](Cc2ccccc2)N(N)C(=O)[C@H](CC(C)C)NC(=O)[C@H](CCCN)N(N)C(=O)[C@H](C(C)C)NC(=O)[C@@H]2CCCN2C(=O)[C@@H](Cc2ccccc2)N(N)C1=O [Compound 9] (cyclo(L[X1]PV[Orn(Nα-NH2)]L[X1]PV[Orn(Nα-NH2)]))
n

Hello, is Hemolytic Activity (% Hemolysis) of the following molecule strictly smaller than 3%? CC(C)C[C@@H]1NC(=O)[C@H](CCCN)NC(=O)[C@H](C(C)C)NC(=O)[C@@H]2CCCN2C(=O)[C@@H](Cc2ccccc2)N(N)C(=O)[C@H](CC(C)C)NC(=O)[C@H](CCCN)NC(=O)[C@H](C(C)C)NC(=O)[C@@H]2CCCN2C(=O)[C@@H](Cc2ccccc2)NC1=O [Compound 1] (HELM PEPTIDE1{L.[dF].P.V.[Orn].L.[NN([C@H](Cc1ccccc1)C(=O)[*:2])[*:1]].P.V.[Orn]}$PEPTIDE1,PEPTIDE1,1:R1-10:R2$$$V2.0)
y

Hello, is Hemolytic Activity (% Hemolysis) of the following molecule strictly smaller than 3%? CC(C)C[C@@H]1NC(=O)[C@H](CCCN)NC(=O)[C@H](C(C)C)NC(=O)[C@@H]2CCCN2C(=O)[C@@H](Cc2ccccc2)N(N)C(=O)[C@H](CC(C)C)NC(=O)[C@H](CCCN)NC(=O)[C@H](C(C)C)NC(=O)[C@@H]2CCCN2C(=O)[C@@H](Cc2ccccc2)N(N)C1=O [Compound 2] (HELM PEPTIDE1{L.[NN([C@H](Cc1ccccc1)C(=O)[*:2])[*:1]].P.V.[Orn].L.[NN([C@H](Cc1ccccc1)C(=O)[*:2])[*:1]].P.V.[Orn]}$PEPTIDE1,PEPTIDE1,1:R1-10:R2$$$V2.0)
y
